# subjectOfTest: feline FcRn complex (FcRn-α subunit and β-microglobulin) (feline)
# measurementNotes: SPR (Biacore), FcRn on SA chip, pH 6
endpoint: pKd
Hey, just a heads up that pKd is the negative log base 10 of the concentration in molar.

# binder, pKd
records = [
    ("feline IgG1a mutant ID No. 376: S252Y, S434R, T250Q (antibody, part only; not given: Variable domains, not shown: another chain or arm of the molecule) constant: ASTTAPSVFPLAPSCGTTSGATVALACLVLGYFPEPVTVSWNSGALTSGVHTFPAVLQASGLYSLSSMVTVPSSRWLSDTFTCNVAHPPSNTKVDKTVRKTDHPPGPKPCDCPKCPPPEMLGGPSIFIFPPKPKDQLYISRTPEVTCLVVDLGPDDSDVQITWFVDNTQVYTAKTSPREEQFNSTYRVVSVLPILHQDWLKGKEFKCKVNSKSLPSPIERTISKAKGQPHEPQVYVLPPAQEELSRNKVSVTCLIKSFHPPDIAVEWEITGQPEPENNYRTTPPQLDSDGTYFVYSKLSVDRSHWQRGNTYTCSVSHEALHRHHTQKSLTQSPGK", 9.40),
    ("feline IgG1a mutant ID No. 281: S252Y, D312P, L314K, S434Y (antibody, part only; not given: Variable domains, not shown: another chain or arm of the molecule) constant: ASTTAPSVFPLAPSCGTTSGATVALACLVLGYFPEPVTVSWNSGALTSGVHTFPAVLQASGLYSLSSMVTVPSSRWLSDTFTCNVAHPPSNTKVDKTVRKTDHPPGPKPCDCPKCPPPEMLGGPSIFIFPPKPKDTLYISRTPEVTCLVVDLGPDDSDVQITWFVDNTQVYTAKTSPREEQFNSTYRVVSVLPILHQPWKKGKEFKCKVNSKSLPSPIERTISKAKGQPHEPQVYVLPPAQEELSRNKVSVTCLIKSFHPPDIAVEWEITGQPEPENNYRTTPPQLDSDGTYFVYSKLSVDRSHWQRGNTYTCSVSHEALHYHHTQKSLTQSPGK", 8.63),
    ("feline IgG1a mutant ID No. 300: S428Y, Q311W, D312P, S434Y (antibody, part only; not given: Variable domains, not shown: another chain or arm of the molecule) constant: ASTTAPSVFPLAPSCGTTSGATVALACLVLGYFPEPVTVSWNSGALTSGVHTFPAVLQASGLYSLSSMVTVPSSRWLSDTFTCNVAHPPSNTKVDKTVRKTDHPPGPKPCDCPKCPPPEMLGGPSIFIFPPKPKDTLSISRTPEVTCLVVDLGPDDSDVQITWFVDNTQVYTAKTSPREEQFNSTYRVVSVLPILHWPWLKGKEFKCKVNSKSLPSPIERTISKAKGQPHEPQVYVLPPAQEELSRNKVSVTCLIKSFHPPDIAVEWEITGQPEPENNYRTTPPQLDSDGTYFVYSKLSVDRSHWQRGNTYTCSVYHEALHYHHTQKSLTQSPGK", 9.63),
    ("feline IgG1a mutant ID No. 295: S252Y, S428Y, Q311W, L314K, S434Y (antibody, part only; not given: Variable domains, not shown: another chain or arm of the molecule; small tags and cut ends) constant: ASTTAPSVFPLAPSCGTTSGATVALACLVLGYFPEPVTVSWNSGALTSGVHTFPAVLQASGLYSLSSMVTVPSSRWLSDTFTCNVAHPPSNTKVDKTVRKTDHPPGPKPCDCPKCPPPEMLGGPSIFIFPPKPKDTLYISRTPEVTCLVVDLGPDDSDVQITWFVDNTQVYTAKTSPREEQFNSTYRVVSVLPILHWDWKKGKEFKCKVNSKSLPSPIERTISKAKGQPHEPQVYVLPPAQEELSRNKVSVTCLIKSFHPPDIAVEWEITGQPEPENNYRTTPPQLDSDGTYFVYSKLSVDRSHWQRGNTYTCSVYHEALHYHHTQKSLTQSPGK", 9.17),
    ("feline IgG1a mutant ID No. 287: S252Y, S428Y, D312P, L314K, S434Y (antibody, part only; not given: Variable domains, not shown: another chain or arm of the molecule) constant: ASTTAPSVFPLAPSCGTTSGATVALACLVLGYFPEPVTVSWNSGALTSGVHTFPAVLQASGLYSLSSMVTVPSSRWLSDTFTCNVAHPPSNTKVDKTVRKTDHPPGPKPCDCPKCPPPEMLGGPSIFIFPPKPKDTLYISRTPEVTCLVVDLGPDDSDVQITWFVDNTQVYTAKTSPREEQFNSTYRVVSVLPILHQPWKKGKEFKCKVNSKSLPSPIERTISKAKGQPHEPQVYVLPPAQEELSRNKVSVTCLIKSFHPPDIAVEWEITGQPEPENNYRTTPPQLDSDGTYFVYSKLSVDRSHWQRGNTYTCSVYHEALHYHHTQKSLTQSPGK", 9.20),
    ("feline IgG1a mutant ID No. 255: S428M, S434P (antibody, part only; not given: Variable domains, not shown: another chain or arm of the molecule) constant: ASTTAPSVFPLAPSCGTTSGATVALACLVLGYFPEPVTVSWNSGALTSGVHTFPAVLQASGLYSLSSMVTVPSSRWLSDTFTCNVAHPPSNTKVDKTVRKTDHPPGPKPCDCPKCPPPEMLGGPSIFIFPPKPKDTLSISRTPEVTCLVVDLGPDDSDVQITWFVDNTQVYTAKTSPREEQFNSTYRVVSVLPILHQDWLKGKEFKCKVNSKSLPSPIERTISKAKGQPHEPQVYVLPPAQEELSRNKVSVTCLIKSFHPPDIAVEWEITGQPEPENNYRTTPPQLDSDGTYFVYSKLSVDRSHWQRGNTYTCSVMHEALHPHHTQKSLTQSPGK", 8.12),
    ("feline IgG1a mutant ID No. 333: S428Y, D312P, S434Y, Q311Y, L314K (antibody, part only; not given: Variable domains, not shown: another chain or arm of the molecule; small tags and cut ends) constant: ASTTAPSVFPLAPSCGTTSGATVALACLVLGYFPEPVTVSWNSGALTSGVHTFPAVLQASGLYSLSSMVTVPSSRWLSDTFTCNVAHPPSNTKVDKTVRKTDHPPGPKPCDCPKCPPPEMLGGPSIFIFPPKPKDTLSISRTPEVTCLVVDLGPDDSDVQITWFVDNTQVYTAKTSPREEQFNSTYRVVSVLPILHYPWKKGKEFKCKVNSKSLPSPIERTISKAKGQPHEPQVYVLPPAQEELSRNKVSVTCLIKSFHPPDIAVEWEITGQPEPENNYRTTPPQLDSDGTYFVYSKLSVDRSHWQRGNTYTCSVYHEALHYHHTQKSLTQSPGK", 9.04),
]

Task item: Could you tell me which pKd is on file for feline IgG1a mutant ID No. 303: A431K, S434Y (antibody, part only; not given: variable domains and light chain, not shown: another chain or arm of the molecule) constant: ASTTAPSVFPLAPSCGTTSGATVALACLVLGYFPEPVTVSWNSGALTSGVHTFPAVLQASGLYSLSSMVTVPSSRWLSDTFTCNVAHPPSNTKVDKTVRKTDHPPGPKPCDCPKCPPPEMLGGPSIFIFPPKPKDTLSISRTPEVTCLVVDLGPDDSDVQITWFVDNTQVYTAKTSPREEQFNSTYRVVSVLPILHQDWLKGKEFKCKVNSKSLPSPIERTISKAKGQPHEPQVYVLPPAQEELSRNKVSVTCLIKSFHPPDIAVEWEITGQPEPENNYRTTPPQLDSDGTYFVYSKLSVDRSHWQRGNTYTCSVSHEKLHYHHTQKSLTQSPGK ?
Reply: 8.88
